conditionDetails: in ethanol, 293.15 K
recordedEndpoint: solubility (mole fraction)
Answers are plain numbers.

Entry O=[PH](O)c1ccccc1 — recorded solubility (mole fraction) = 0.136

====

conditionDetails: in water, 298.15 K
recordedEndpoint: solubility (mole fraction)

Entry CP(=O)(O)c1ccccc1 — recorded solubility (mole fraction) = 0.0154

====

conditionDetails: in water, 333.45 K
recordedEndpoint: solubility (mole fraction)
Numbers only.

Entry O=[PH](O)c1ccccc1 — recorded solubility (mole fraction) = 0.11

====

conditionDetails: in acetonitrile, 303.55 K
recordedEndpoint: solubility (mole fraction)

Entry c1ccc(OP2(Oc3ccccc3)=NP(Oc3ccccc3)(Oc3ccccc3)=NP(Oc3ccccc3)(Oc3ccccc3)=N2)cc1 — recorded solubility (mole fraction) = 0.006
